tested on: PPARg:RXRa 30nM:10nM, anti-RXR (NR concentration 30 nM, RXRa partner concentration 10 nM); assay: PBM binding z-score (relative to random genomic background probes); higher = stronger binding; sequences stand for … in GC…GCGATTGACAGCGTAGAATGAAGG
# maps each entry to its PBM binding z-score
Measurement type: PBM binding z-score

>  <Sequence code>
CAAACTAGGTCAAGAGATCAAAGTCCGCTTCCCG

>  <Measurement type>
PBM binding z-score

>  <Result>
4.87

$$$$
>  <Sequence code>
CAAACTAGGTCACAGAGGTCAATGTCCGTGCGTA

>  <Measurement type>
PBM binding z-score

>  <Result>
6.44

$$$$
>  <Sequence code>
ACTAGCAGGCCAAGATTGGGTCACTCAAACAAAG

>  <Measurement type>
PBM binding z-score

>  <Result>
-0.526

$$$$
>  <Sequence code>
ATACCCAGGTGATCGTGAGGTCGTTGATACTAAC

>  <Measurement type>
PBM binding z-score

>  <Result>
-0.0532

$$$$
>  <Sequence code>
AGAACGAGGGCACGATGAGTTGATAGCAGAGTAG

>  <Measurement type>
PBM binding z-score

>  <Result>
0.778

$$$$
>  <Sequence code>
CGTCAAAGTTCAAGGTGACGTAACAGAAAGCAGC

>  <Measurement type>
PBM binding z-score

>  <Result>
2.12

$$$$

###

# maps each entry to its PBM binding z-score
tested on: LXRb homodimer (NR concentration 270 nM); test: PBM binding z-score (relative to random genomic background probes); higher = stronger binding; sequences stand for … in GC…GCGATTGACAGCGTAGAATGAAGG

>  <Sequence code>
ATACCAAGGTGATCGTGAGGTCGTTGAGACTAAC

>  <PBM binding z-score>
0.251

$$$$
>  <Sequence code>
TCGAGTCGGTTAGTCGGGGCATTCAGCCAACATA

>  <PBM binding z-score>
-0.884

$$$$
>  <Sequence code>
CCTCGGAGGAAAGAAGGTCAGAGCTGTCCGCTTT

>  <PBM binding z-score>
-0.651

$$$$
>  <Sequence code>
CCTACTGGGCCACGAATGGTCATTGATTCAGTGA

>  <PBM binding z-score>
-1.07

$$$$
>  <Sequence code>
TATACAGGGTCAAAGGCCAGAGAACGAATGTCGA

>  <PBM binding z-score>
2.25

$$$$
>  <Sequence code>
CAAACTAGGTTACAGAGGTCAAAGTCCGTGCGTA

>  <PBM binding z-score>
2.18

$$$$
>  <Sequence code>
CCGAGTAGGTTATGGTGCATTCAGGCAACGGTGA

>  <PBM binding z-score>
0.234

$$$$
>  <Sequence code>
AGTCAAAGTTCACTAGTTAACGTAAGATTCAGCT

>  <PBM binding z-score>
1.03

$$$$
>  <Sequence code>
ATCTCTAGGTAAGACTCAGTTCAGTGACGAACGC

>  <PBM binding z-score>
0.883

$$$$
>  <Sequence code>
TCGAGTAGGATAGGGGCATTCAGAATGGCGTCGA

>  <PBM binding z-score>
-0.491

$$$$
>  <Sequence code>
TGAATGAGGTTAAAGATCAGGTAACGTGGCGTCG

>  <PBM binding z-score>
0.134

$$$$
>  <Sequence code>
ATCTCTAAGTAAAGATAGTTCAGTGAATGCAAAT

>  <PBM binding z-score>
0.588

$$$$
